test: FRG1 promoter luciferase signal modulators, primary screen, FRG1 inhibition for FSHD, cell-based, C2C12 myotubes, firefly/Renilla luciferase, luminescence (AID 1084); conditions: higher = more signal, called active from +8 up or from −8 down
Record y whenever z-score is at 0.02 or higher; record n when lower.

Please review the following examples before continuing.
>  <MOLECULE>
CC(C)=CCCC(C)=CCON=C1C[C@@H](O)[C@@H](O)[C@@H]2[C@@H]3C(=O)N([C@@H](C)c4ccccc4)C(=O)[C@@H]3CC[C@@H]12

>  <GROUP>
n

$$$$
>  <MOLECULE>
C[C@@H]1CC[C@H]2C(=O)O[C@@H](COc3ccc(C(C)(C)C)cc3)CN2[C@H]1c1ccc(Br)cc1

>  <GROUP>
y

$$$$
>  <MOLECULE>
CON=C(C)CCN1CCCCc2nc(C)c(C)cc21

>  <GROUP>
y

$$$$

// query Could you tell me if the measured z-score of C[C@@H](c1ccccc1)N1C(=O)[C@H]2[C@H]3[C@H](O)[C@H](O)CC(=NOC[C@@H](O)COCc4ccco4)[C@H]3CC[C@H]2C1=O reaches 0.02 or more?
// result y

// query Could you tell me if the measured z-score of CC(C)[C@@H](OCc1ccccc1)[C@H](C)CON=C1[C@H]2CCn3c(=O)n(-c4ccccc4)c(=O)n3[C@H]2[C@H](O)[C@@H]2O[C@H]12 reaches 0.02 or more?
// result n

###

system: PRMT1 (protein arginine N-methyltransferase 1); test: PRMT1 binders on small-molecule microarrays, primary screen, biochemical, small-molecule microarray, 635 nm fluorescence (AID 1088); conditions: small-molecule microarray binding, higher = more signal;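 further: binding of Prmt1 protein to compounds spotted on small-molecule microarray slides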
Recorded measurements of composite z-score, one per entry
Please reply with the number alone, leaving off any unit.

// query Query (compound): O=C1[C@H]2[C@H]3[C@H](O)[C@H](O)CC(=NO[C@@H]4O[C@H](CO)[C@@H](O)[C@H](O)[C@H]4O)[C@H]3CC[C@H]2C(=O)N1C[C@@H]1CCCO1 ; field requested: composite z-score
// result -0.099

// query Query (compound): CO[C@@H](C1CCCCC1)[C@@H](C)[C@H](OCc1cccc(Br)c1)[C@@H](C)CO ; field requested: composite z-score
// result 0.0812

// query Query (compound): CCCNC(=O)OC[C@H]1O[C@H](CCON=C2C[C@@H](O)[C@@H](O)[C@@H]3[C@@H]4C(=O)N(CC)C(=O)[C@@H]4CC[C@@H]23)C=C[C@@H]1Oc1ccc(OC)cc1 ; field requested: composite z-score
// result 1.07

// query Query (compound): O=C1[C@H]2[C@H]3[C@H](O)[C@H](O)CC(=NOCc4ccccc4)[C@@H]3CC[C@H]2C(=O)N1c1cccc(Oc2ccccc2)c1 ; field requested: composite z-score
// result 1.35

// query Query (compound): CO[C@H]1COC(=O)CCC[C@H](C)[C@@H](OC)COC(=O)CC=C[C@@H]1C ; field requested: composite z-score
// result 0.411

###

test: binders of probe aFSTL3 on microarray, primary screen, stem cell growth factor project, biochemical, small-molecule microarray, fluorescence 635/667 (AID 1064); conditions: higher = more signal;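 further: measures binding of the biotinylated anti-FSTL3 antibody to printed compounds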
Recorded measurements of composite z-score, one per entry

>  <COMPOUND>
CO[C@H]1COC(=O)[C@H](C)COC(=O)[C@@H](OCc2ccccc2)C=C[C@@H]1C

>  <composite z-score>
-0.411

$$$$
>  <COMPOUND>
CCN1C(=O)[C@H]2[C@H]3[C@H](O)[C@H](O)CC(=NO[C@@H](C)c4cc(-c5c(C)cc(C)cc5C)no4)[C@@H]3CC[C@H]2C1=O

>  <composite z-score>
-0.558

$$$$
>  <COMPOUND>
COC(=O)CC=C1c2ccccc2[C@H](OC)[C@H]1C

>  <composite z-score>
-0.033

$$$$

Now let's try a different one.
// query Query (compound): CCOC(=O)[C@H](CC(C)C)NC(=O)CCC1CC(OC(=O)NCc2ccc3c(c2)OCO3)CC2(CCCC(COC(=O)NCCC(C)C)O2)O1 (some centres undefined) ; field requested: composite z-score
// result -0.495
